molecular target: HLA-A*26:01; experiment: IEDB peptide-MHC binding, purified MHC/direct/fluorescence; filed as Kd, often an IC50 or EC50 that approximates it; bounds were set here for any values at or beyond the usual limits of such assays; conditions: source organism: Influenza A virus(A/swine/Henan/3/2004(H9N2))
pKd: −log10 of the molar value.
quantity_kind: pKd

Query: Query pKd for RRVRDNMTK
Reply: ≤ 4.70

----------
target: HLA-A*03:01; test: IEDB peptide-MHC binding, purified MHC/direct/fluorescence; filed as Kd, often an IC50 or EC50 that approximates it; bounds were set here for any values at or beyond the usual limits of such assays; conditions: source organism: Influenza A virus (A/chicken/Hubei/wk/1997(H5N1))
pKd: −log10 of the molar value.
quantity_kind: pKd

Query: Respond only with pKd recorded for MKWMMAMKY
Reply: ≤ 4.70

----------
molecular target: HLA-A*02:01; experiment: IEDB peptide-MHC binding, purified MHC/direct/fluorescence; filed as Kd, often an IC50 or EC50 that approximates it; bounds were set here for any values at or beyond the usual limits of such assays; conditions: source organism: Vibrio cholerae V52
pKd: −log10 of the molar value.
quantity_kind: pKd

Query: Indicate its recorded pKd; the sequence in question is MGMEQTMSV
Reply: ≤ 4.70

----------
molecular target: HLA-B*15:01; assay: IEDB peptide-MHC binding, purified MHC/direct/fluorescence; filed as Kd, often an IC50 or EC50 that approximates it; bounds were set here for any values at or beyond the usual limits of such assays; conditions: source organism: Giardia lamblia ATCC 50803
For each record, write down the corresponding pKd.
Answers are plain numbers, as −log10 of the molar value.

Example sequences with recorded pKd:
Query: Look up pKd of PTKCGENLY and report it.
Reply: 5.63

Query: In one line, give reported pKd of the entry KLLQICMWF .
Reply: 4.78

Read the next record carefully.
Query: Indicate the recorded pKd value for this sequence: ATSGYRIAY
Reply: 7.35

----------
Can you tell me pKd for the items I'm about to list?
target: HLA-A*31:01; assay: IEDB peptide-MHC binding, purified MHC/competitive/radioactivity; filed as Kd, often an IC50 or EC50 that approximates it; bounds were set here for any values at or beyond the usual limits of such assays; conditions: source organism: Dengue virus 4 Philippines/H241/1956
One number for each entry, as −log10 of the molar value.

The cases that follow already have their pKd on record.
Query: Tell me its pKd given IVMLHTTER as the entry.
Reply: 8.63

Query: Return the recorded pKd value; entry: TAMAFHLSTR
Reply: 7.46

***
Query: Return the recorded pKd value; entry: RMLNILNGR
Reply: 8.94

----------
biological target: HLA-A*02:03; test: IEDB peptide-MHC binding, purified MHC/competitive/fluorescence; filed as Kd, often an IC50 or EC50 that approximates it; bounds were set here for any values at or beyond the usual limits of such assays; conditions: source organism: Vibrio vulnificus CMCP6
quantity_kind: Kd

Query: Please list Kd recorded for the sequence VTFFCVMTY
Reply: ≥ 20 µM

----------
biological target: HLA-C*08:02; test: IEDB peptide-MHC binding, purified MHC/direct/fluorescence; filed as Kd, often an IC50 or EC50 that approximates it; bounds were set here for any values at or beyond the usual limits of such assays; conditions: source organism: SARS-CoV1
pKd: −log10 of the molar value.
quantity_kind: pKd

Query: Using the record for FADINGKLY , state its measured pKd.
Reply: ≥ 9.00
